Examples of compounds with documented CC50 at 24 h follow.
Experiment: in vitro
Conditions: rat, gh3-tre-luc cells, AC50 (uM) modified / 1000
Where a name gives a salt, the structure may show the parent alone.

Worked set:
compound: NC1CCCCC1 [Cyclohexylamine hydrochloride]
measured_parameter: CC50 at 24 h
value_reported: > 90 µM
--
compound: C=C1C[C@H]2[C@@H]3CCC4=CC(=O)C=C[C@]4(C)[C@@]3(F)[C@@H](O)C[C@]2(C)[C@@]1(O)C(=O)COC(C)=O [Fluprednidene acetate]
measured_parameter: CC50 at 24 h
value_reported: > 50 µM
--
compound: CC(C)(CO)[C@@H](O)C(=O)NCCCC(=O)O [Calcium hopantenate]
measured_parameter: CC50 at 24 h
value_reported: > 50 µM
--
compound: C=C[Si](OC)(OC)OC [Vinyltrimethoxysilane]
measured_parameter: CC50 at 24 h
value_reported: > 90 µM
--
compound: Cc1c(OCC(F)(F)F)ccnc1C[S+]([O-])c1nc2ccccc2[nH]1 (stereo not drawn) [Lansoprazole]
measured_parameter: CC50 at 24 h
value_reported: > 90 µM
--
compound: COC(=O)/C=C/C(C)=C\C=C\C(C)=C\C=C\C=C(C)\C=C\C=C(C)\C=C\C(=O)O [Bixin]
measured_parameter: CC50 at 24 h
value_reported: > 90 µM

Would you kindly share the measured CC50 at 24 h for O=C(c1ccc2c(c1)C(=O)OC2=O)c1ccc2c(c1)C(=O)OC2=O [Benzophenonetetracarboxylic dianhydride] ? > 90 µM

Quick one: Cc1ccccc1 [Toluene] > 90 µM

Quick one: COCCOCCOCCOCCO [2,5,8,11-Tetraoxatridecan-13-ol] > 90 µM

Quick one: Cc1ccccc1C(=O)Nc1ccc(C(=O)N2CCCC(O)c3cc(Cl)ccc32)c(C)c1 (stereo not drawn) [Tolvaptan] > 50 µM

Quick one: C=C(C)C(=O)OCCOCCOC(=O)C(=C)C [Di(ethylene glycol) dimethacrylate] > 90 µM

Quick one: O=C(O)P(=O)(O)O [Foscarnet trisodium] > 50 µM

Quick one: O=CNNC=O [1,2-Diformylhydrazine] > 90 µM

---

Experiment: in vitro
Conditions: rat, gh3-tre-luc cells, AC50 (uM) modified / 1000
measured_parameter: CC50 at 24 h

compound: CN(C)CCOC(C)(c1ccccc1)c1ccccn1 (centres unmarked) [Doxylamine succinate]
CC50 at 24 h: > 50 µM
--
compound: CCCCCCCCCCCCCCCCC
CC50 at 24 h: > 90 µM
--
compound: CC1CCN(CCCC(=O)c2ccc(F)cc2)CC1
CC50 at 24 h: > 50 µM
--
compound: CC(C)(C)OC(=O)N1C[C@@H](F)C[C@H]1C(=O)O
CC50 at 24 h: > 90 µM
--
compound: COc1nc(N)nc2nc[nH]c12
CC50 at 24 h: > 90 µM

Would you kindly share the measured CC50 at 24 h for `NNc1nnc(Cc2ccncc2)c2ccccc12` ? > 50 µM

Quick one: `NCC1(CC(=O)O)CCCCC1` > 20 µM

Quick one: O=C(O)[C@H](O)c1ccccc1 [D-(-)-Mandelic acid] > 50 µM

Quick one: CN1C[C@@H]2c3ccccc3Oc3ccc(Cl)cc3[C@H]2C1 (racemic) 33.1 µM

Quick one: `CCc1ccc(C(c2ccc(CC)cc2)C(Cl)Cl)cc1` 82.4 µM

Quick one: `N[C@@H](CSCCCO)C(=O)O` > 50 µM
